system: SR leukemia; test: NCI tumour cell line growth inhibition, 48 h
Recorded measurements of TGI, one per entry
readout: TGI

In [3]: df
Out[3]:
                                   compound  assay_result
0  CC1(C)C(OC(=O)c2ccccc2)C[C@]23CCC[C@](C)(C[C@@H](O)C12)C3 (stereo partly specified)      > 100 µM
1                 C/C(O)=C/c1nc2ccccc2[nH]1      > 100 µM
2  CN1CCN(c2ccc3nc(-c4c5cccccc-5[nH]c4=O)[nH]c3c2)CC1       49.5 µM
3  COC(=O)[C@@H](Cc1ccccc1)NNC(=O)OC(C)(C)C      > 100 µM
4   NC1CSc2ccccc2NC1=O (stereo unspecified)      > 100 µM
5  O=C1c2ccc(O)cc2OC(c2cc(O)c(O)c(O)c2)C1O (stereo unspecified)       56.5 µM

---

tested on: T-47D breast; experiment: NCI tumour cell line growth inhibition, 48 h
readout: TGI (µM)

In [3]: df
Out[3]:
                                   compound  comparison_symbol  assay_result
0        O=C(CON1C(=O)c2ccccc2C1=O)c1ccccc1                  =          52.6
1  Nc1cc2c(nc3c4ccccc4c(N)cc3[n+]2-c2cccc3ccccc23)c2ccccc12 (tested in a mixture with another compound)                  =          16.1
2  Cc1ccc(-c2cc(C(=O)N3N=C(c4ccc(N)cc4)CC3c3ccc(Cl)cc3)c3ccccc3n2)cc1 (stereo not given)                  >           100
3  O=[N+]([O-])/C(C(Cl)=C(Cl)Cl)=C(\Nc1cccc2ccccc12)Sc1ccccc1                  =          44.8
4  CC(=O)OC/C=C(\C)CCC(Br)C(C)(C)Br (stereo not given)                  >            10

---

system: HOP-92 NSCLC; experiment: NCI tumour cell line growth inhibition, 48 h; in the data active = GI50 below about 0.43 µM; inactive = the rest
Possible outcomes: active, inactive

molecule	label
COc1ccc(S(=O)(=O)Nc2cc(/C=C\c3cc(OC)c(OC)c(OC)c3)cc(OC)c2OC)cc1	inactive
COC(=O)[C@@H](C[C@H](Cc1ccccc1)NC(=O)c1csc([C@@H](C[C@H](C(C)C)N(C)C(=O)[C@@H](NC(=O)[C@H]2CCCCN2C)C(C)C)OC(C)=O)n1)NC(=O)OCc1ccccc1	active
O[N+]1=CC=CCC1=S.On1ccccc1=S.[Zn]	inactive
Cc1ccc(-c2cc(C(=O)N3N=C(c4ccc(N)cc4)CC3c3ccc(Cl)cc3)c3ccccc3n2)cc1 (centres undefined)	inactive
C1CN1c1nc(N2CC2)nc(N2CC2)n1	inactive
COc1ccc2nc3cc(Cl)ccc3c(NCCCCCN3CCCCC3)c2c1	inactive
Cc1nc2cc(-n3c(-c4ccc(F)cc4)nc4ccccc4c3=O)ccc2n1Cc1ccccc1	inactive
C[C@@]1(CO)[C@H](O)CC[C@@]2(C)[C@H]1CC[C@H]1C[C@@H]3C[C@@]12CC[C@@]3(O)COC(=O)CN	inactive
CCN(CC)c1ccc(/C=C2\SC(=O)C(Nc3nnc(-c4cccnc4SCc4ccccc4)o3)C2=O)cc1 (centres undefined)	inactive

---

tested on: HL-60(TB) leukemia; assay: NCI tumour cell line growth inhibition, 48 h

molecule	comparison symbol	TGI / µM
Cc1ccc2c(c1)C(=O)c1[nH]c3ccc(F)cc3c1CO2	>	100
O=C(O)C(Cc1c[nH]c2ccccc12)C(=O)NO (centres undefined)	>	100
COC(=O)C1=C2SCc3ccc(cc3)CSC3=C(C(=O)OC)SC(=C(S2)S1)S3	=	9.51
CCCCCCC[C@@H](O)CC(=O)NC(CC(C)C)C(=O)NC(CCC(=O)O)C(=O)NC1C(=O)NC(C(C)C)C(=O)NC(CC(C)C)C(=O)NC(CO)C(=O)NC(CC(C)C)C(=O)NC(CO)C(=O)NC(C(C)CC)C(=O)OC1C (some centres undefined)	=	37.2
Clc1ccc(/C=C2\CCCC3C2=Nc2ccccc2NC3c2ccc(Cl)cc2)cc1 (centres undefined)	=	33
CC(=O)Oc1ccc(O)c2c1CCCC2	=	14.1
Cn1cc(NC(=O)[C@H]2CCC(N)=N2)cc1C(=O)NCCC(=N)N	>	100
FC(F)(F)c1ccc(-c2cncn2-c2ccccc2)cc1	=	35.6
CCN(CC)c1ccc2cc(-c3nc(-c4ccccc4)n[nH]3)c(=O)oc2c1	>	100

---

test system: HCT-116 colon; assay: NCI tumour cell line growth inhibition, 48 h
Recorded measurements of TGI, one per entry
readout: TGI

                                    molecule      tested_on  readout  assay_result
 0       FC(F)(F)c1ccc(-c2cncn2-c2ccccc2)cc1  HCT-116 colon      TGI       16.3 µM
 1  COc1ccc(/C=N/C2=C(C#N)C(c3ccccc3)c3c(ccc4ccccc34)O2)cc1 (configuration not stated)  HCT-116 colon      TGI       19.2 µM
 2                   CC(C)(C)OC(=O)N1CCCC1=O  HCT-116 colon      TGI       > 10 µM
 3  O=C(/C(=C\c1ccccc1)CN1CCOCC1)c1ccc(Br)cc1  HCT-116 colon      TGI        3.2 µM
 4  COC(=O)C1=C(O)[C@H](C(=O)OC)C2(O)[C@@H](C(=O)OC)[C@H]1C[C@@H](c1ccc(OC(=O)n3ccnc3)cc1)[C@@H]2C(=O)OC  HCT-116 colon      TGI       > 50 µM
 5    COc1ccc(/C=C/C(=O)c2cccc(B(O)O)c2)cc1O  HCT-116 colon      TGI       10.7 µM
 6  O=C1c2ccccc2CCC1C(O)(C(F)(F)F)C(F)(F)F (configuration not stated)  HCT-116 colon      TGI      > 100 µM
 7  C=CC(=O)NC(O)(C(=O)OCC)C(F)(F)F (configuration not stated)  HCT-116 colon      TGI      > 100 µM
 8       Cc1ccc(/C=C2\N=C(N3CCOCC3)NC2=O)cc1  HCT-116 colon      TGI      > 100 µM
 9  CC1=CC2CCC1(C)C/C2=C(/C)OC=O (configuration not stated)  HCT-116 colon      TGI      > 100 µM
10        O=C(CON1C(=O)c2ccccc2C1=O)c1ccccc1  HCT-116 colon      TGI      > 100 µM
11              COc1ccc(CC#N)c(OCc2ccccc2)c1  HCT-116 colon      TGI      > 100 µM
12  Cc1cc(O)c2c3c1C(=O)Oc1c(CO)c(O)c(C(=O)O)c(c1O3)C=NN=Cc1c3c(c(CO)c(O)c1C(=O)O)OC(=O)c1c(C)cc(O)c(c1O3)C=NN=C2  HCT-116 colon      TGI      > 100 µM
13  CC(C)=CC1CCc2ccccc2N1S(=O)(=O)c1ccc(C)cc1 (configuration not stated)  HCT-116 colon      TGI       6.69 µM
14         O=C(N/N=C\c1c(O)ccc2ccccc12)C1CC1  HCT-116 colon      TGI      > 100 µM
15   Cc1ccc2c(c1)C(=O)c1[nH]c3ccc(F)cc3c1CO2  HCT-116 colon      TGI      > 100 µM
16   O=C(OCCN=C1c2ccccc2CCc2ccccc21)c1ccccc1  HCT-116 colon      TGI      > 100 µM
17  COC(=O)C(N)CSC(c1ccccc1)(c1ccccc1)c1ccccc1 (configuration not stated)  HCT-116 colon      TGI       34.4 µM
18             CN1CCc2c(sc3ncn(N)c(=N)c23)C1  HCT-116 colon      TGI      > 100 µM
19  CCC(C(C)N1CC(=O)NC(=O)C1)N1CC(=O)NC(=O)C1 (configuration not stated)  HCT-116 colon      TGI      > 100 µM
20  COC(=O)C1=C2SCc3ccc(cc3)CSC3=C(C(=O)OC)SC(=C(S2)S1)S3  HCT-116 colon      TGI      > 100 µM
21  O=C(N=C1N(c2ccccc2)C(=O)C(=O)N1c1ccccc1)c1ccccc1  HCT-116 colon      TGI       14.4 µM

---

tested on: OVCAR-5 ovarian; experiment: NCI tumour cell line growth inhibition, 48 h
readout: TGI (µM)

>>> print(df.to_string())
                                   compound  readout  comparison_symbol  assay_result
0  Cc1cccc(C)c1NC(=O)C(=O)C(C#N)c1ccccc1Cl (stereo unspecified)      TGI                  >           100
1  Nc1cc2c(nc3c4ccccc4c(N)cc3[n+]2-c2cccc3ccccc23)c2ccccc12 (tested in a mixture with another compound)      TGI                  =          25.2
2  c1ccc([P+](CCN2Cc3ccccc3C2)(c2ccccc2)c2ccccc2)cc1      TGI                  =            57
3  CCOC(=O)C1=C(C)N(c2ccc(OC)cc2)C2(O)C=CC(=O)C3C(=O)N(c4ccccc4)C(=O)C132 (stereo unspecified)      TGI                  =          22.8
4          O=C1CCC(O)=C1N=Nc1cc(Cl)cc(Cl)c1      TGI                  >           100
5                   CNc1nc(SC)nc2c1c(N)nn2C      TGI                  >           100

The measurements presented in this section are drawn from PubChem BioAssay (NCI).
